These measurements were taken from ChEMBL document CHEMBL1201862.

Below is a list of entries, each paired with its recorded GI50 value.
- System: UO-31
- Procedure summary: NCI tumour cell line growth inhibition, 48 h
Activity calls are given as the source filed them. Rule as the data show it: active = GI50 up to about 1.1 µM and inactive = higher.

1) C[C@H]1C(=O)C2=C[C@H]1CCC(=O)[C@]1(C)CCCC(C)(C)[C@H]1C[C@H]2O ... 27.4 µM (inactive)
2) COC(=O)C(C#N)=C1c2ccccc2Oc2ccccc21 ... > 100 µM (inactive)
3) O=S1(=O)C(c2ccccc2)=C(O)c2ccccc21 ... > 100 µM (inactive)
4) CCOP(=O)(OCC)C(Nc1ccc(Br)cc1)c1cccc([N+](=O)[O-])c1 (stereo unspecified) ... 10.8 µM (inactive)
5) CC1(C)COC(c2ccc(C(=O)c3ccc(Cl)cc3)cc2)=N1 ... 58.7 µM (inactive)

Moving on to the next compound.
Prompt: For the compound COc1ccc(-n2nnc3c(C#N)c(C)c(-c4ccccc4)n3c2=O)cc1 , what GI50 is on record?
Response: 4.33 µM (inactive)
